Measured values drawn from patent US7858635B2 for this set.

target.or.system: M4 muscarinic receptor (Homo sapiens)
Construct: expressed in transfected cells; host or cells: CHO cells (M4-CHO, under puromycin, zeocin and blasticidin selection)
Sequence (P08173 1-479): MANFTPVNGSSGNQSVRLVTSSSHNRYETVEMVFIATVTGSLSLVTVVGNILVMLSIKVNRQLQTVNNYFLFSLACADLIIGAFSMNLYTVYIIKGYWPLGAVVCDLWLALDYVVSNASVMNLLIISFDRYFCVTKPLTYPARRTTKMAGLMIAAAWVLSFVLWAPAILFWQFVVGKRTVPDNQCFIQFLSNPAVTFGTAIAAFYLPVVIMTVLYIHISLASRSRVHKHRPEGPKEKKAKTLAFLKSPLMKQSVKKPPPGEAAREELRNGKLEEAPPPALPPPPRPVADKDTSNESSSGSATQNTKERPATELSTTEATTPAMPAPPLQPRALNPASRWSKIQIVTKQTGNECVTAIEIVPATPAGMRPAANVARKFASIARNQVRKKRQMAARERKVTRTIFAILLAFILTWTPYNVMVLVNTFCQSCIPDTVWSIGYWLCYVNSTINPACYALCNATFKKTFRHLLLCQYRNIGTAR
procedure.summary: Functional mobilization of intracellular calcium (FLIPR, Fluo-3), M4-CHO cells
Type: cell-based
condition.context: compound nos. 1-454; 100% efficacy is the maximum response obtained with the Carbachol control; read-out: M4 Efficacy
Examples of compounds with documented Emax follow.

Emax in this record for CC(=O)N1CC2(CCN(C3CC4CCC(C3)N4C(=O)OC(C)C)CC2)c2cc(F)ccc21 (centres unmarked) : < 55%

Consider `CCOC(=O)N1CCC(CN2CCC3(CC2)CN(C(C)=O)c2ccc(OC(F)(F)F)cc23)CC1` . Its measured Emax is < 55%

Entry `COCCOC(=O)N1CCC(N2CCC3(CC2)CN(C(C)=O)c2ccc(F)cc23)CC1` — recorded Emax = < 55%

Measured Emax, `CCOC(=O)N1CCC(N2CCC3(CC2)CNc2ccccc23)CC1` : > 70%

Memo: CCCOC(=O)N1C2CCC1CC(N1CCC3(CC1)CN(S(C)(=O)=O)c1ccc(F)cc13)C2 (centres unmarked) , reported Emax: 55 to 70%

Memo: CC(=O)NC1CC2(CCN(C[C@@H]3C[C@H]4C=C[C@H]3C4)CC2)c2ccccc21 (some centres unmarked) , reported Emax: 55 to 70%

Emax reported for this compound `CCOC(=O)N1CCC(N2CCC3(CC2)CN(C(=O)CC)c2ccc(F)cc23)CC1` : < 55%

// recorded Emax for CC(=O)N1CC2(CCN(CC3CCOC3)CC2)c2cc(F)ccc21 (centres unmarked) : > 70%

Entry `CCOC(=O)N1CCC(N2CCC3(CC2)CN(CCC(=O)CC)c2ccc(F)cc23)CC1` — recorded Emax = > 70%

Emax reading for `CCOC(=O)N1CCC(N2CCC3(CC2)CN(C(=O)c2ccc(F)cc2)c2ccc(F)cc23)CC1` : < 55%

# Emax of CCCOC(=O)N1C2CCC1CC(N1CCC3(CC1)CN(C(=O)C1CCC1)c1ccc(F)cc13)C2 (centres unmarked) = < 55%

Value of measured Emax for the entry CC(=O)N[C@H]1CC2(CCN(C3CC4CCC(C4)C3)CC2)c2ccccc21 (some centres unmarked) : < 55%

Consider Cc1cc(C(=O)N2CC3(CCN(C4CC5CCC(C4)N5C(=O)O[C@H]4CCOC4)CC3)c3cc(F)ccc32)nn1C (some centres unmarked) . Its measured Emax is > 70%

// sample CN(C)C(=O)N1C2CCC1CC(N1CCC3(CC1)COc1ccc(F)cc13)C2 (centres unmarked) , its Emax was < 55%

compound `CC(=O)CN1CC2(CCN(C[C@@H]3C[C@H]4C=C[C@H]3C4)CC2)c2cc(F)ccc21` , Emax observed: < 55%

Emax in this record for CC(=O)N1CC2(CCN(CC3CC4CCC3C4)CC2)c2cc(C)ccc21 (centres unmarked) : < 55%

The compound identified as COCCOC(=O)N1CC2(CCN(C3CC4CCC(C3)N4C(=O)OC(C)C)CC2)c2cc(F)ccc21 (centres unmarked) registered its Emax at < 55%

// Emax value for Cc1ccc2c(c1)C1(CCN(CC3CCC4CCC3C4)CC1)CN2 (centres unmarked) : > 70%

Emax reading for `CCOC(=O)N1CCC(N2CCC3(CC2)C[C@H](NC(C)=O)c2ccccc23)CC1` : < 55%

Item: O=C(C1CC1)N1CC2(CCN(C3CC4CCC(C3)N4C(=O)O[C@H]3CCOC3)CC2)c2cc(F)ccc21 (some centres unmarked) | Emax: 55 to 70%

The compound identified as Cc1ccc2c(c1)C1(CCN(C3CC4CCC3C4)CC1)CN2C(=O)c1cc(C)n(C)n1 (centres unmarked) registered its Emax at < 55%

So, Cc1ccc2c(c1)C1(CCN(C3CC4CCC3C4)CC1)CN2C(=O)c1ccno1 (centres unmarked) ? Its Emax was 55 to 70%

The compound O=C(O[C@@H]1CCOC1)N1CC2(CCN(C3CC4CCC(C3)N4C(=O)O[C@@H]3CCOC3)CC2)c2cc(F)ccc21 (some centres unmarked) showed Emax equal to 55 to 70%
